- Tested on: SETVI (Foxtail, Green)
- Method notes: Postemergence herbicidal evaluation
- Type: in vivo, Setaria viridis
- Measurement setup: Rate 0.0158 kg/ha
Measure name: Postemergence herbicidal rating SETVI

INSERT INTO measurements (compound, measure_name, recorded_value) VALUES
  ('CCOC(=O)CN1C(=O)C(CC(=O)OC(C)C)SC1=Nc1cc(-n2c(=O)cc(C(F)(F)F)n(C)c2=O)c(F)cc1Cl (stereo not shown)', 'Postemergence herbicidal rating SETVI', 0.0),
  ('COC(=O)CCN1C(=O)CSC1=Nc1cc(-n2c(=O)cc(C(F)(F)F)n(C)c2=O)c(F)cc1Cl', 'Postemergence herbicidal rating SETVI', 0.0),
  ('CCOC(=O)CN1CCSC1=Nc1cc(-n2nc(C)n(C(F)F)c2=O)c(F)cc1Cl', 'Postemergence herbicidal rating SETVI', 3.0),
  ('Cn1c(C(F)(F)F)cc(=O)n(-c2cc(N=C3SCC(=O)N3[C@@H](Cc3ccccc3)C(=O)O)c(Cl)cc2F)c1=O', 'Postemergence herbicidal rating SETVI', 6.0);
